Cited source for all entries: paper PMC4080980

- test-name: Serum pharmacokinetics after 500 mg oral bolus of 13C5-C3G (HPLC-ESI-MS/MS, non-compartmental analysis)
- Assay type: in vivo, humans
- measurement-conditions: male, human; serum; trapezoidal rule; single 500 mg oral 13C5-C3G; mean ± SEM; read-out: AUC0-48
observed-property: AUC(0-t) (µM·h)

{"molecule": "COc1cc(/C=C/C(=O)O)ccc1O", "numeric-readout": 1.82}
{"molecule": "O=C(O)c1ccc(O)c(O)c1", "numeric-readout": 1.38}

[I] OCC1OC(Oc2cc3c(O)cc(O)cc3[o+]c2-c2ccc(O)c(O)c2)C(O)C(O)C1O (stereo not shown) [Cyanidin-3-glucoside, 6,8,10,3′,5′-^13C5-cyanidin-3-glucoside]
[II] O=Cc1ccc(O)cc1 [4-Hydroxybenzaldehyde]
## Input Recorded AUC(0-t) values differ for I and II ; which one is higher? Returns: label corresponding to the selected item.
## Output II
